# credit: PubChem BioAssay (NCI)

Items are presented alongside their recorded growth inhibition.
# Assay Overview: NCI Yeast Anticancer Drug Screen. Data for the cln2 rad14 strain (AID 165);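 also: 0% = growth equal to vehicle treated cultures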
# Run Parameters: S. cerevisiae cln2 rad14 strain, at 5.0 µM (retest, dose inferred, filed as 0.5), hits give high values
Compounds without any hit were thinned out: in the full panel of roughly 79,000, 15% have a hit.
Kindly answer with a numeric value in %, unit omitted.

The cases that follow already have their growth inhibition on record.
INSERT INTO results (smiles_repr, reported_value) VALUES
  ('O=C(O)/C(Cl)=C(\Cl)C(=O)Nc1cccc(C(F)(F)F)c1', 43),
  ('COC(=O)c1cc2c(c(C(=O)OC)c1O)C(=O)C=CC2=O', 10),
  ('O=C(CBr)c1ccc2cc(Br)c3ccccc3c2c1', 16);

// sample `CNC(=O)N1N[C@H](c2ccccc2)[C@@H]1c1ccccc1` , its growth inhibition was 20

The molecule `CCCc1cc(=O)oc2c3c(c4c(c12)OC(C)(C)CC4)O[C@H](C)[C@@H](C)[C@H]3O` showed growth inhibition equal to 18

// field: growth inhibition; key: `O=C(NNC(=O)c1cccc(C(=O)NNC(=O)c2ccc(Cl)c(Cl)c2)n1)c1ccc(Cl)c(Cl)c1` ; value = 54

The reported value for `O=C(O)Cc1ccccc1CCc1ccccc1Cl` in terms of growth inhibition is -2

Entry `N#CC1=CN=C2C=CC=C3N=C(C(Cl)(Cl)Cl)N=C1N32` ; growth inhibition = 2

Lookup result for `CC1=C(C(=O)Nc2cccc(Cl)c2)C(c2ccccc2O)C(C(=O)Nc2cccc(Cl)c2)=C(C)N1` ; measured growth inhibition: 10

Value of growth inhibition reported for the molecule `O=C1Nc2ccccc2/C1=C/c1ccc(Cl)c(Cl)c1` is 20

Entry `O=[N+]([O-])c1ccc(Cl)cc1C=NC12CC3CC(CC(C3)C1)C2` ; growth inhibition = 3

====

# Assay Overview: NCI Yeast Anticancer Drug Screen. Data for the sgs1 mgt1 strain (AID 161);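 also: 0% = growth of cultures given vehicle only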
# Run Parameters: S. cerevisiae sgs1 mgt1 strain, at 5.0 µM (retest, dose inferred, filed as 0.5), hits give high values
The panel holds about 79,000 compounds, 15% with a hit somewhere; the sample as a whole holds those more often.
Listed next: entries and their corresponding growth inhibition.
Give the value in % but do not write % after it.

INSERT INTO assay_data (compound, assay_metric, reported_value) VALUES
  ('CCCCCCCN=C(N)c1ccc(C(=O)OCc2ccccc2)cc1', 'growth inhibition', 5),
  ('Cc1ccc(C(=Nc2ccccc2)N=P(c2ccccc2)(c2ccccc2)c2ccccc2)cc1', 'growth inhibition', 46),
  ('CC(=O)Nc1nnc(C)s1', 'growth inhibition', -2),
  ('CC(C)(C)CC(C)(C)c1ccc(OCCSC(=N)N)cc1', 'growth inhibition', 75),
  ('Cc1cc(Br)c(N2C3=C(CC4=C2CCCC4=O)C(=O)CCC3)c(Br)c1', 'growth inhibition', -3),
  ('Cc1cc2nc(CC(=O)c3ccncc3)c(CC(=O)c3ccncc3)nc2cc1C', 'growth inhibition', 10);

The compound identified as `O=C1C=C(Br)C(=O)C(Br)=C1` registered its growth inhibition at 13

// growth inhibition lookup, compound = `CCCCCCn1c(SCC)c2ccccc2c1-c1nc(F)nc(F)n1` , result: -15

The reported value for `COc1ccc(NC(=O)OC(C)C)c(OC)c1` in terms of growth inhibition is -3

The recorded growth inhibition for `CCCCCCCCCCCC(=O)N1CCCC1` is 3

Per the record, CC(/C(=N/NC(=O)C(N)=O)c1c(Cl)ccc(Cl)c1O)C1(O)C(=O)Nc2ccccc21 (configuration not stated) has growth inhibition of 9

GET /value?item= CC(=O)Nc1ccc(/S(=N\S(=O)(=O)c2ccc(C)cc2)c2ccc(NC(C)=O)cn2)cc1 (configuration not stated) &field=growth inhibition returns 0

====

# Assay Overview: NCI Yeast Anticancer Drug Screen. Data for the mec2-1 strain (AID 157)
# Run Parameters: S. cerevisiae mec2-1 strain, at 50.0 µM (retest, dose inferred, filed as 5.0)
This is part of a sample that, as a whole, favours compounds with a hit. Of some 79,000 tested, about 15% had one in any assay. The source made the active and inactive calls. No stated cut-off is given here; in the data, active means growth inhibition above about 70%; inactive means the rest.
The categories you may choose from are active, inactive

Known results for molecules:
INSERT INTO measurements (molecule, class_assignment) VALUES
  ('COc1ccc2nc3cc([N+](=O)[O-])ccc3c(NNc3ccc([N+](=O)[O-])cc3)c2c1', 'inactive'),
  ('O=C(CCl)Oc1c(Br)cc(-c2ccccc2)cc1Br', 'active'),
  ('CC[N+]1(C)CCC(O)(/C=C/c2ccccc2)C(C(=O)/C=C/c2ccccc2)C1 (stereo not given)', 'active'),
  ('CC(=O)n1nc2c(c1CC(C)C)C(=O)C(Nc1ccccc1)=CC2=O', 'active');

Next molecule, please.
Input line: Just curious, what result did CCOC(=O)CCC(NC(=O)c1ccc(NC(OC)c2nc3cc(C(F)(F)F)ccc3nc2-c2ccccc2)cc1)C(=O)OCC (stereo not given) get here?
Output line: active

====

# Assay Overview: NCI Yeast Anticancer Drug Screen. Data for the mec2-1 strain (AID 157)
# Run Parameters: S. cerevisiae mec2-1 strain, at 50.0 µM, hits give high values
About 79,000 compounds went through this panel and 15% of them were active in at least one assay; those are over-represented in the sample as a whole.
Label rule, in plain words: growth inhibition of 90% and up is criterion met, under 90% is criterion not met.

A selection of reference data follows.
INSERT INTO assay_data (molecule, class_assignment) VALUES
  ('CS(=O)(=O)c1nc(Cl)c(Cl)c(C#N)c1Cl', 'criterion met'),
  ('OCc1ccccc1CC(O)(c1ccccc1)c1ccccc1', 'criterion met'),
  ('CCN(CC)Cc1c(-c2ccccc2)oc(-c2ccccc2)c1CN(CC)CC', 'criterion not met');

API: the following record is the query input.
Input line: Could you verify whether the entry COc1cc2c(c(OC)c1OC)-c1ccc(SC)c(=O)cc1[C@@H](NC1OC(COC(C)=O)C(OC(C)=O)C(OC(C)=O)C1OC(C)=O)CC2 (stereo partly specified) shows growth inhibition of no less than 90%?
Output line: criterion not met

====

# Assay Overview: NCI Yeast Anticancer Drug Screen. Data for the mlh1 rad18 strain (AID 175)
# Run Parameters: S. cerevisiae mlh1 rad18 strain growth inhibition; at 50.0 µM
This is part of a sample that, as a whole, favours compounds with a hit. Of some 79,000 tested, about 15% had one in any assay. Calls of active or inactive are those of the source. No stated cut-off is given here; in the data, active means growth inhibition above about 70%; inactive means the rest.
Use one of these outcomes when replying: 1 for active, -1 for inactive

Use these answered entries as a reference point.
INSERT INTO assay_data (molecule, class_assignment) VALUES
  ('CCCCN(CCCC)CCCCNc1ccc(C)c2sc3ccccc3c(=O)c12', 1),
  ('O=C(N=c1sc2ccccc2s1)N=c1sc2ccccc2s1', -1),
  ('O=C(CSC1=NNC2(C(=O)N1)c1ccccc1-c1ccccc12)NC(=S)Nc1ccccc1', 1);

Input line: What did this assay record as the result for `CCc1cc2c([nH]c3ccccc32)c(C)c1CCN(C)C` ?
Output line: -1

Input line: Which outcome was entered for the molecule `O=C1C=CC(=O)c2c1oc1ccccc21` in this test?
Output line: -1

Input line: Please state the recorded outcome for this molecule: CC1=NN(C(=O)c2ccc(Cl)cc2)C(=O)C1N=Nc1ccc(S(=O)(=O)Nc2ncccn2)cc1 (stereo not drawn)
Output line: -1

Input line: What classification did `CC/C(=N\NS(=O)(=O)c1ccc(C)cc1)c1cccc(OC)c1` end up with in this test?
Output line: 1

Input line: What was the test verdict on `O[C@H]1[C@H]2c3cc4c(cc3CN3CCC(=C[C@@H]1O)[C@H]23)OCO4` ?
Output line: 1

Input line: Would you mind telling me which call this test gave `NNc1c(Cl)c(F)c(Cl)c(F)c1Cl` ?
Output line: -1

Input line: What classification did `CC(C)Cc1ncc(CC(C)C)n(O)c1=O` end up with in this test?
Output line: 1

Input line: Hi, do you know how `O=NN(CCCl)C(=O)Oc1cc(Cl)c(Cl)cc1Cl` came out in this test?
Output line: 1

Input line: Test call, this molecule: `C[n+]1c(/C=C/c2ccc([N+](=O)[O-])cc2)ccc2ccccc21`
Output line: 1

Input line: Which outcome was entered for the molecule `C[C@]12CC[C@H](O)C[C@@H]1CC[C@@H]1[C@@H]2C(=O)C[C@]2(C)C3=CC(=O)O[C@H]3C[C@@H]12` in this test?
Output line: 1

Input line: So what was the verdict on `Cc1cc2c(cc1C)[n+](=O)c(C(=O)C/C(=N/NC(=O)CC#N)C(=O)Nc1ccccc1C(F)(F)F)c(C)n2[O-]` in this test?
Output line: 1

Input line: Recorded test call requested for O=C1Oc2ccccc2C1c1ccccc1 (stereo not drawn)
Output line: -1

Input line: Hey, what did the test say about `O=C(O)CCC(=O)c1ccc(C2CCCC2)c2ccccc12` ?
Output line: 1

Input line: Each molecule tested received a call. Report the one for CCC1CCC(CC)C1=O (stereo not drawn) .
Output line: -1

Input line: I would be grateful if you could indicate the recorded call for `Clc1ccc(-c2cc(-c3cc(-c4ccc(Cl)c(Cl)c4)n[nH]3)[nH]n2)cc1Cl` .
Output line: -1

Input line: Outcome? `Cc1cc(C)c(C(=O)/C=C/C(=O)c2ccccc2)c(C)c1`
Output line: 1

Input line: What outcome does the record of this test show for `O=C(N/N=C/c1ccccc1)c1ccc([N+](=O)[O-])cc1` ?
Output line: -1

Input line: Dear colleague, could you share the recorded outcome for Cc1c(C2CC(=O)NC2=O)c2ccccc2n1C (stereo not drawn) when you have a moment?
Output line: -1

Input line: Hello, I am checking results. What call was entered for `CSC(SC)=C(C#N)C(=O)Nc1ccc(C)cc1` ?
Output line: 1

Input line: How was COc1ccc(C2Oc3c(cccc3OC)C=C2[N+](=O)[O-])cc1 (stereo not drawn) classified in this test?
Output line: -1
